settings: [M+Na]+; instrument: TW; calibrated with polyalanine
Measured collision cross section (N2), listed per entry for reference.
measured attribute: collision cross section (N2) (Å²)

1. CC[C@H](C)[C@H]1C(=O)O[C@H](C(C)C)C(=O)N(C)[C@@H]([C@@H](C)CC)C(=O)O[C@H](C(C)C)C(=O)N(C)[C@@H]([C@@H](C)CC)C(=O)O[C@H](C(C)C)C(=O)N1C = 262.4
2. COc1cc2c(c3oc(=O)c4c(c13)CCC4=O)[C@@H]1CCO[C@@H]1O2 = 176.8
3. CC[C@H](C)[C@H]1C(=O)O[C@H](C(C)C)C(=O)N(C)[C@@H]([C@@H](C)CC)C(=O)O[C@H](C(C)C)C(=O)N(C)[C@@H](C(C)C)C(=O)O[C@H](C(C)C)C(=O)N1C = 258
4. CCCC[C@@H](C)[C@@H](OC(=O)CC(CC(=O)O)C(=O)O)[C@H](C[C@@H](C)C[C@H](O)CCCCCC[C@@H](O)[C@H](C)N)OC(=O)CC(CC(=O)O)C(=O)O (some centres not stated) = 259.2
5. CCCC[C@@H](C)[C@@H](OC(=O)C[C@@H](CC(=O)O)C(=O)O)[C@H](C[C@@H](C)C[C@H](O)CCCC[C@@H](O)C[C@H](O)[C@H](C)N)OC(=O)C[C@@H](CC(=O)O)C(=O)O = 264.4
6. CCCC[C@@H](C)[C@@H](OC(=O)C[C@@H](CC(=O)O)C(=O)O)[C@H](C[C@@H](C)CCCCCCCC[C@H](O)[C@H](C)N)OC(=O)C[C@@H](CC(=O)O)C(=O)O = 260.4
7. CC(C)[C@H]1OC(=O)[C@H](Cc2ccccc2)N(C)C(=O)[C@@H](C(C)C)OC(=O)[C@H](Cc2ccccc2)N(C)C(=O)[C@@H](C(C)C)OC(=O)[C@H](Cc2ccccc2)N(C)C1=O = 287.4

====

details: [M-H]-; instrument: DT; single field, calibrated with ESI Low Concentration Tuning Mix (Agilent)
measured attribute: collision cross section (N2) (Å²)

1) NC(=O)NC1NC(=O)NC1=O (stereo not drawn) [ALLANTOIN] = 125.5
2) Nc1ncnc2c1ncn2[C@@H]1O[C@H](COP(=O)(O)OP(=O)(O)O)[C@@H](O)[C@H]1O [ADENOSINE 5'-DIPHOSPHATE] = 183.7
3) NC(CCSSCCC(N)C(=O)O)C(=O)O (stereo not drawn) [HOMOCYSTINE] = 151.6
4) O=C([O-])C(O)c1ccccc1 (stereo not drawn) [MANDELATE] = 130.2
5) O=C(O)CC(C(=O)O)C(O)C(=O)O (stereo not drawn) [ISOCITRATE] = 127
6) O=C(O)[C@H]1C[C@@H](O)CN1 [CIS-4-HYDROXY-D-PROLINE] = 124.3
7) C[C@]12CCC(=O)C=C1CC[C@@H]1[C@@H]2C(=O)C[C@@]2(C)[C@H]1CC[C@]2(O)C(=O)CO [CORTISONE] = 191.4
8) C[C@H](CCC(=O)NCC(=O)O)[C@H]1CC[C@H]2[C@@H]3[C@H](O)C[C@@H]4C[C@H](O)CC[C@]4(C)[C@H]3CC[C@]12C [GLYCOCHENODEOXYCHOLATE] = 200.7
